System: Mus musculus
Procedure Text: Tested for anticonvulsant activity against mice at 4 hr at a peroral dose of 75 mg/Kg by maximal electroshock seizure (MES) test
Assay type: functional
For each of the compounds below, state its Block.
I only need the number, in %, no unit after it.

Notebook: pull reported Block for Mus musculus, entry "CC1(C)O[C@H]2[C@@H]3OS(=O)(=O)O[C@@H]3CO[C@@]2(COS(=O)(=O)NC2CCCCCCC2)O1"
30

Notebook: pull reported Block for Mus musculus, entry "CCCCCCCCNS(=O)(=O)OC[C@@]12OC[C@H]3OS(=O)(=O)O[C@H]3[C@@H]1OC(C)(C)O2"
100

Notebook: pull reported Block for Mus musculus, entry "CC1(C)O[C@H]2[C@@H]3OS(=O)(=O)O[C@@H]3CO[C@@]2(COS(=O)(=O)NCC(F)(F)F)O1"
90

Notebook: pull reported Block for Mus musculus, entry "CN(C)S(=O)(=O)OC[C@@]12OC[C@H]3OC(C)(C)O[C@H]3[C@@H]1OC(C)(C)O2"
0

Notebook: pull reported Block for Mus musculus, entry "CNS(=O)(=O)OC[C@@]12OC[C@H]3OC(C)(C)O[C@H]3[C@@H]1OC(C)(C)O2"
60

Notebook: pull reported Block for Mus musculus, entry "CCN(CC)S(=O)(=O)OC[C@@]12OC[C@H]3OS(=O)(=O)O[C@H]3[C@@H]1OC(C)(C)O2"
100

Notebook: pull reported Block for Mus musculus, entry "CC1(C)O[C@H]2[C@@H]3OS(=O)(=O)O[C@@H]3CO[C@@]2(COS(=O)(=O)NCc2ccccc2)O1"
100

Notebook: pull reported Block for Mus musculus, entry "CC1(C)O[C@H]2[C@@H]3OS(=O)(=O)O[C@@H]3CO[C@@]2(COS(=O)(=O)Nc2ccccc2)O1"
0
